Data provenance is patent US20250019437A1.

Each record here notes measured Binding Signal (fold over 6E7 parental antibody).
# Experimental Target: T1, human TREM2 (triggering receptor expressed on myeloid cells 2) (human) (UniProt Q9NZC2)
# T1 sequence (looked up): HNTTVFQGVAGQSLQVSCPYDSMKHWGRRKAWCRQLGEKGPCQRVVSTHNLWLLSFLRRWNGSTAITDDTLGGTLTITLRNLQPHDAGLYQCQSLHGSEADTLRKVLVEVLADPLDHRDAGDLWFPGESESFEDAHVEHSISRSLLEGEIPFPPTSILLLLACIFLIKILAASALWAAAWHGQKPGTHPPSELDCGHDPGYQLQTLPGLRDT
# Assay Notes: 2nd screen, 10 nM Ab
Give the quantity in fold, number only.

INSERT INTO results (binder, val) VALUES
  ('6E7 antibody affinity modulation variant V60 (antibody, V domains shown) VH: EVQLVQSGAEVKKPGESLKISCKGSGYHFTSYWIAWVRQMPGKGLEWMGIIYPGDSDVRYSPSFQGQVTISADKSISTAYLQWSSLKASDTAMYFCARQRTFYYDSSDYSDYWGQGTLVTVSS VL: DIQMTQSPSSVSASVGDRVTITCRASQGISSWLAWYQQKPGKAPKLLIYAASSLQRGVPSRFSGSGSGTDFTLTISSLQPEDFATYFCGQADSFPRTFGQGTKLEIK', 3.63),
  ('6E7 antibody affinity modulation variant V39 (antibody, V domains shown) VH: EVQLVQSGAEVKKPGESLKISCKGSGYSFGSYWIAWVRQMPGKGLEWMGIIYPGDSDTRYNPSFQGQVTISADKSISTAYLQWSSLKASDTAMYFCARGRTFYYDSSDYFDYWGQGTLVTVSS VL: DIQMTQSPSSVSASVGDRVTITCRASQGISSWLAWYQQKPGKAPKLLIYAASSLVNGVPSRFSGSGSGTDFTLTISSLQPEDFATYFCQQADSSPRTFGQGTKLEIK', 5.81);

Qu. Which Binding Signal (fold over 6E7 parental antibody) reading was recorded for the binder 6E7 antibody affinity modulation variant V25 (antibody, V domains shown) VH: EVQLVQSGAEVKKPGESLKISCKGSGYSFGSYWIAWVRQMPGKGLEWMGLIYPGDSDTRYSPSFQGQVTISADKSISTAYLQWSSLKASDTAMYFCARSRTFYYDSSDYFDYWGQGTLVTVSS VL: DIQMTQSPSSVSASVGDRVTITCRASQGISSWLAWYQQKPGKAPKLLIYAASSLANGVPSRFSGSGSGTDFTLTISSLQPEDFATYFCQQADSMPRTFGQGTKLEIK ?
Ans. 4.7
